Assay: soluble fraction after stress (log2 fold change); higher = more stays soluble; pooled small domains, quantitative proteomics
Settings: stress: pH 4
TEST_READOUT: soluble fraction (log2)
Provide a numeric answer; units are not to be included.

Query :: State the recorded soluble fraction (log2) for this entry: HMSTILERLIMLQEQSGMNQKQLQKELGLSNSAFSDWKKGKGRPSVEALVRFSEFFGVSMDWLAFG
Result :: -0.845

Query :: Given the entry HMQRADYLILYYIKMQAEQHPDSKVYLADLAAVMGLKVTELSKAVEKLQDNGFVAWKTDREAGRTYVELS , report its measured soluble fraction (log2).
Result :: -0.89

Query :: Could you share which soluble fraction (log2) value was measured for HMTPQVTVPDVTGQSFASAKQVLESLGLTVKQQGSTGENDKVIGQNPTSGNADKGATITLTTQDS ?
Result :: -0.154

Query :: Look at this sequence and give its reported soluble fraction (log2). HMGSKQVSVPDVRNLDYERASQQLREAGFVVGDVLRIRDDRAPAGTVIAQSPAAPALVPENARVSLLVSSG
Result :: 0.00984

Query :: What does the data say about its soluble fraction (log2)? Entry: HMEDGEALARAVASLPGKYREVLFLKYSHGYSVDEIALILSMSKENVKKTIQRARKKLEQLLESE
Result :: -0.507

Query :: Returns the measured soluble fraction (log2) for the input sequence. Input: HMNSKSFIFHIEDEEGIRLDVFLADNLPDVSRSYVQKLIDEEHVKVNGQSAKSRLKTVSGMEITVDVPAPK
Result :: -0.543

Query :: Requested read-out: soluble fraction (log2). Entry: HMTIAFPSNDVDAVVGYFESRGFDRTASISTATVILQQAKIDGVKVFELIDTLQGMDKVQLSYIVTEILN
Result :: -0.0582

Query :: Give its soluble fraction (log2) value. Item: HMSEYEYALHEFGITKKQSQRIFDRLSIADLEERINAIQTTLKQRSDIDNPAAYAWTVLNAE
Result :: -0.767

Query :: Data request, read-out soluble fraction (log2), for HMSDAQIKASINDLWFKYNLETFAKLNLNVNQGRVLVTGIVQNPEHRLEAIRLVWTVDGVQQVINEIQVAE
Result :: -1.23

Query :: State the recorded soluble fraction (log2) for this entry: HMIVSVPNVRGMGESKAAAALQNRGLLVSIDYESSTSASQGEVIRQSISPGTEVTKGSSITIIIAVSPN
Result :: -0.0228

Query :: What value of measured soluble fraction (log2) is listed for HMGQVGIPFSDFLAEVENGQVREVVIKGNDISGTFNDNRGFSTYAPNDPNLVEKLTKRGVVINAQPTE ?
Result :: 0.123

Query :: For HMDTVSYSTLLRDIDAKEIKQLDLVPGRREVRVQYNDGRRVTVPVFANDNQILRAAESSGTPLTVV , what is its reported soluble fraction (log2)?
Result :: 0.0175

Query :: Reported soluble fraction (log2), sequence HMPSALGDKIRAARKALKLSLEDLAEKVSSSKSYMWELENRDEPNPGADLLMRIAAALNVTTEHLLGP : ____
Result :: -0.0842

Query :: What value of measured soluble fraction (log2) is listed for HMTEPKILTAEESQRLDLILVQQWPELGRRALRELVQQGGVRINGELALKAGQYVQAGERVEVAVP ?
Result :: -0.879

Query :: So what's the measured soluble fraction (log2) for this one? HMGPLDIAQLKSDFLGGDAQLARRAWDQLATKAGDEGRDFLISSLGSSDPQIRNRVALGIHES
Result :: -0.152

Query :: Consider the sequence HMEKTLAERVNDILAEIKMTKQELAMQLNISRSAVSQYLNGKYSSNPEAIEARLRDFVSSYDRG and give its measured soluble fraction (log2).
Result :: -0.243

Query :: Fill in: soluble fraction (log2) of HMFTYDLSERELTIIELVAKGLNNKELADTLFLSEGTIRNYLSTLLNKLDLRDRTQLAIFYYQHL is ___
Result :: -2.93

Query :: Quick one: soluble fraction (log2) of HMTALPPNVSIDSDERRLLEAIGFDPVDMDVLARDGQFSSVDLFRLLVSLELKGLVENQHGAYQRL ?
Result :: -1.67

Query :: Field request: soluble fraction (log2) | item: HMEDSHIYPVSFNGKMRFKLELPVSMNKKEIEEVVLQHEDAQKWLNGQNPKKVIVVPKRIINIV
Result :: 0.308

Query :: Quick one: soluble fraction (log2) of HMQLEPLVTSVIPVNFAKASDISGTIKGKEVGLLSERGNITAENRTNVLIVKDIRKSVDEINAMVKRLD ?
Result :: 0.151

Query :: Form field: reported soluble fraction (log2) of HMKLVTIPNVIGKTKEDAMKTLKDLGVTVTVETKESEKDDGTVIAQSKAEGTKLTAGENVTITVSKKKK
Result :: -0.487

Query :: What soluble fraction (log2) value was documented for this sequence, HMKSFIWKQYTVQITKKNVKNTNVRIKRDNPHVILMSIPYSATYKAGLLALETPHIRHWLDNYERKLKQ ?
Result :: 0.0309

Query :: Please give the measured soluble fraction (log2) for this sequence: HMSFMPDPSIHDAITYTVRSGDYLGKISTTFGVKVSDLQKWNSIKSNIIYPGQKLTVWVSSNKRESLQ
Result :: 0.194

Query :: Given the sequence HMASATGVVTAASLNVRSGAGTNYSVVNTLAKGTKVTVLNTADGWYEIEATVNNEKITGYVSATYIAMD , what is its reported soluble fraction (log2)?
Result :: -0.0486

Query :: Data request, read-out soluble fraction (log2), for HMTSIISLAKARSIALQKVPGATSKNIHLSLDDEDDKQVYEGEIKYKQMEYVFEIDAKTGTFLKWTSERD
Result :: 0.185

Query :: State the recorded soluble fraction (log2) for this entry: HMTKYVEGQKYVFEFRDGTITIGTYLRTGEGNIYIKDLSGEDIYIPKIMIAQIHLATDDNVKGDEFWF
Result :: -1.17

Query :: Look at this sequence and give its reported soluble fraction (log2). HMSDIATLVPGPTDAELAASALRGLDAALDADTPVRLSLGEPGGEVEVPRSVLAALARVLDSFAHGEGVTL
Result :: -0.443

Query :: What does the record list as soluble fraction (log2) for HMGILPDDVKLNIKEAKKIGFPIMLKAIHGGGGRGMMIVQSEDEFADAMKITKTEAKNSFGNGDLYFEKFF ?
Result :: 0.0153

Query :: So what's the measured soluble fraction (log2) for this one? HMNYYYKDNQYWYVGFRYDERLVKEIKRFVGAGYNPENKEWYIPFTLPTVAPLQKWLHDNGFVEGMNYYP
Result :: -1.31

Query :: Tell me the measured soluble fraction (log2) of HMYFFNTFTQRLFDNPELTQEEAIRQMYPGISGVQTAEKLQENFMADVYIQAAIRQEIVVQLIR , please.
Result :: 0.22

Query :: Item HMEKDEYIFVDIDGAVFNPGVYKLIAGSRVIDAINLAGGLKEKAFTQNLNKARKLVDGEKIYIYLEGDEE has what recorded soluble fraction (log2)?
Result :: -1.23

Query :: Which soluble fraction (log2) value is on record for HMHEGNWTLPNPMPIGTTLTLPEHSRLYISNLAGQRVFETSATSVEIPLLPKGTYLLRLETMNGHTTRKIL ?
Result :: 0.00873

Query :: Suppose we examine the sequence HMTLLVPASKEAILGGLAKIDALKVILKPEKDYSKTHAMTIGTKDEVIAKLDSFLSGMDSEKNQVLIQEYM ; what soluble fraction (log2) value has been reported?
Result :: -0.135

---

Test: soluble fraction after stress (log2 fold change); higher = more stays soluble; pooled small domains, quantitative proteomics
Settings: stress: pH 4
TEST_READOUT: soluble fraction (log2)
Answer with the value's number alone.

Query :: Bench note: what soluble fraction (log2) did HMHAGQIISQKIKESGISISHVAKHLKVQRATLYNLFEREVWPAHRLRTIEALLHIDLSDLYP show?
Result :: -1.52

Query :: Suppose we examine the sequence HMDEVVVVERGGVQITMSEIDAKIMELPVDVRPSYLDSPERLQNFVSNLLLEKQAAQLKSQY ; what soluble fraction (log2) value has been reported?
Result :: -1.42

Query :: # query: soluble fraction (log2) of entry HMRTVLSDETYLRIREMLLTHDIAPGERINIDALARELDVSQTPVREALARLESEDLVTKEPLRGYTATK
Result :: -0.123

Query :: # input sequence: HMDISAFDTEFIISKFGGIRPMAQKLGVPVSTVQGWKQRQTIPQNRMGDILEAAKNYNLELTP ; wanted: its soluble fraction (log2)
Result :: 0.114

Query :: If you can, please state the reported soluble fraction (log2) value of HMTGEDIKKVILREYAREKSLLSIFHELSKVNSNVTLEVIKDIITNIDKLPNDLLQYFKEESSFYQKNKN .
Result :: -1.35

Query :: Quick one: soluble fraction (log2) for HMDKATMRWEQIEKFLETHPYIMNADVRALFNVSAATANRILATLTTEGKLVKYREGGHWAYKY ?
Result :: -0.217

Query :: Sample HMIDIIEYIISEESKGLRADQGIALQNPQYSRSLIQKWIKKGSVLVNNKIIRTKEILLEGDKISITPEENI — what was its soluble fraction (log2)?
Result :: -2.29

Query :: State the recorded soluble fraction (log2) for this entry: HMDRGDVTREALIKAAIEIFGRDGFHAASTRAIAERAGANQALIGYHFRGKLGLYHATFEYIIGKI
Result :: -0.474
